experimentalEndpoint: IC50

Measured on UniProt:P15056, CN(C)c1ccc(NC(=O)Oc2ccc3cc(-c4nc(-c5ccccc5)[nH]c4-c4ccncc4)ccc3c2)cc1 [Compound 15] has a documented IC50 of 879 nM
